src = paper PMC7531004

test system: Streptococcus pyogenes SSI-9; experiment: Antibacterial activity assay of bead-derived peptides (three concentrations); type: cell-based; parameters: key: +++: inhibition by the 640-fold diluted peptide solution; ++: inhibition by the 160-fold diluted solution; +: inhibition by the 40-fold diluted solution; -: no inhibition; settings: S. pyogenes, bead-derived peptide solution, three concentrations
Where a SMILES comes first, the peptide text is derived from it. [ ]: non-standard residue; d: D form. The star is where a group is joined. NHCH2CH2OH = OCCN*; For = O=C*
ENDPOINT LABEL: antibacterial activity

MOLECULE: CC(C)C[C@@H](NC(=O)[C@H](C)NC(=O)[C@H](NC(=O)[C@H](C)NC(=O)CNC(=O)[C@@H](NC=O)C(C)C)C(C)C)C(=O)N[C@H](C(=O)N[C@@H](C(=O)N[C@@H](Cc1c[nH]c2ccccc12)C(=O)N[C@@H](C(=O)N[C@@H](Cc1c[nH]c2ccccc12)C(=O)N[C@H](CC(C)C)C(=O)N[C@@H](Cc1c[nH]c2ccccc12)C(=O)N[C@H](CC(C)C)C(=O)N[C@@H](Cc1c[nH]c2ccccc12)C(=O)NCCO)C(C)C)C(C)C)C(C)C [compound 1406] (For-VGA[dV]A[dL]V[dV]W[dV]W[dL]W[dL]W-NHCH2CH2OH)
SUBJECT OF TEST: Streptococcus pyogenes SSI-9
VALUE: +

====

conditions: cell viability/%
Where a SMILES comes first, the peptide text is derived from it. [ ]: non-standard residue; d: D form. The star is where a group is joined. NHCH2CH2OH = OCCN*; For = O=C*
# maps each entry to its viability
Could you give me the number in %? Just the number is fine.

MOLECULE: CC(C)C[C@@H](NC(=O)[C@H](C)NC(=O)CNC(=O)[C@@H](NC=O)C(C)C)C(=O)N[C@@H](C)C(=O)N[C@@H](C(=O)N[C@H](C(=O)N[C@@H](C(=O)N[C@@H](Cc1c[nH]c2ccccc12)C(=O)N[C@H](CC(C)C)C(=O)N[C@@H](Cc1c[nH]c2ccccc12)C(=O)N[C@@H](C(=O)N[C@@H](Cc1c[nH]c2ccccc12)C(=O)N[C@H](CC(C)C)C(=O)N[C@@H](Cc1c[nH]c2ccccc12)C(=O)NCCO)C(C)C)[C@H](C)O)C(C)C)C(C)C [compound 1711] (For-VGA[dL]A[dV]V[dT]W[dL]W[dV]W[dL]W-NHCH2CH2OH)
viability [%]: 100

get_value(item= CNC(=O)C[C@@H](NC(=O)[C@H](Cc1c[nH]c2ccccc12)NC(=O)[C@H](NC(=O)[C@H](Cc1c[nH]c2ccccc12)NC(=O)[C@H](NC(=O)[C@H](Cc1c[nH]c2ccccc12)NC(=O)[C@H](NC(=O)[C@@H](NC(=O)[C@@H](CC(C)C)NC(=O)[C@H](C)NC(=O)[C@H](NC(=O)[C@H](C)NC(=O)CNC(=O)[C@@H](NC=O)C(C)C)C(C)C)C(C)C)C(C)C)C(C)C)C(C)C)C(=O)N[C@@H](Cc1c[nH]c2ccccc12)C(=O)NCCO [compound 2911] (For-VGA[dV]A[dL]V[dV]W[dV]W[dV]W[dD](NHMe)W-NHCH2CH2OH) , readout=viability) returns 100

====

conditions: cell viability/%
Where a SMILES comes first, the peptide text is derived from it. [ ]: non-standard residue; d: D form. The star is where a group is joined. NHCH2CH2OH = OCCN*; For = O=C*
ENDPOINT LABEL: viability (%)
Could you give me the number in %? Just the number is fine.

get_value(item= CNC(=O)C[C@@H](NC(=O)[C@@H](NC(=O)[C@@H](CC(C)C)NC(=O)[C@H](C)NC(=O)[C@H](NC(=O)[C@H](C)NC(=O)CNC(=O)[C@@H](NC=O)C(C)C)C(C)C)C(C)C)C(=O)N[C@@H](Cc1c[nH]c2ccccc12)C(=O)N[C@H](CC(C)C)C(=O)N[C@@H](Cc1c[nH]c2ccccc12)C(=O)N[C@H](CC(C)C)C(=O)N[C@@H](Cc1c[nH]c2ccccc12)C(=O)N[C@H](CC(C)C)C(=O)N[C@@H](Cc1c[nH]c2ccccc12)C(=O)NCCO [compound 1242] (For-VGA[dV]A[dL]V[dD](NHMe)W[dL]W[dL]W[dL]W-NHCH2CH2OH) , readout=viability) returns 65.8
